Hi there, I'd appreciate the recorded log10 of IC50 for every entry that follows.
- system.tested: rat TRPV1 (Rattus norvegicus (Rat))
- Sequence (O35433 whole entry): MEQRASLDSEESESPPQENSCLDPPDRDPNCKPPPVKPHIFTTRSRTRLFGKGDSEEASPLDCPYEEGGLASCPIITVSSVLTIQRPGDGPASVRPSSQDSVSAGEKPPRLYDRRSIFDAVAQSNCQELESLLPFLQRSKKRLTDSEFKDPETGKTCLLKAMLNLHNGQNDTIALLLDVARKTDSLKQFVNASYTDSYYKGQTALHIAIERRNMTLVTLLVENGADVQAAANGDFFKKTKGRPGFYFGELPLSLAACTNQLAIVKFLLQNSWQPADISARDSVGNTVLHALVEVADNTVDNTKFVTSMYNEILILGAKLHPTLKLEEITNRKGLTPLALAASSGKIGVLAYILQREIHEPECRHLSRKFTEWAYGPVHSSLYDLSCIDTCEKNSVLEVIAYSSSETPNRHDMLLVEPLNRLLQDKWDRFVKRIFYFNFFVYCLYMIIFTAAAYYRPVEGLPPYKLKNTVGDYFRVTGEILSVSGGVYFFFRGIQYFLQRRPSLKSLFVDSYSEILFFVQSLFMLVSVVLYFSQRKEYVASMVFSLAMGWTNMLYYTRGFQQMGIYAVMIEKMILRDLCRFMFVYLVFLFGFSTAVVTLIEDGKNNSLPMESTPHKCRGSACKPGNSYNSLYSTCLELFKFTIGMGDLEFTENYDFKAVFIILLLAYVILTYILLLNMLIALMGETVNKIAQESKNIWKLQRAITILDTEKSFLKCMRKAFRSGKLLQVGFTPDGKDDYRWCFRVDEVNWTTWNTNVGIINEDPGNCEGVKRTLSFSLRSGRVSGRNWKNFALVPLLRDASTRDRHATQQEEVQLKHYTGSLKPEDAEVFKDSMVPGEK
- condition: read-out: Rat IC50
Where a name gives a salt, the structure may show the parent alone.
Heads up: the numbers are on a log10 scale; they represent IC50 in nM.

>  <compound>
FC(F)(F)c1ccc(Nc2nc(NCC3CC3)nc3c2CCN(c2ncccc2C(F)(F)F)CC3)cc1 [Example 95B, trifluoroacetic acid salt]

>  <system.tested>
rat TRPV1 (Rattus norvegicus (Rat))

>  <log10 of IC50>
1.91

$$$$
>  <compound>
FC(F)(F)c1ccc(Nc2nc(-c3cccs3)nc3c2CCN(c2ncccc2C(F)(F)F)CC3)cc1 [Example 149]

>  <system.tested>
rat TRPV1 (Rattus norvegicus (Rat))

>  <log10 of IC50>
2.18

$$$$
>  <compound>
CC(=O)c1ccc(Nc2nc(C(C)C)nc3c2CCN(c2ncccc2C(F)(F)F)CC3)cc1 [Example 96]

>  <system.tested>
rat TRPV1 (Rattus norvegicus (Rat))

>  <log10 of IC50>
2.53

$$$$
>  <compound>
CC(=O)c1ccc(Nc2nc(N3CCOCC3)nc3c2CCN(c2ncccc2C(F)(F)F)CC3)cc1 [Example 380]

>  <system.tested>
rat TRPV1 (Rattus norvegicus (Rat))

>  <log10 of IC50>
2.36

$$$$

Hello, I would appreciate it if you could give log10 of IC50 for each entry below.
1. CC(C)(C)c1ccc(Nc2nc(-c3ccncc3)nc3c2CCN(c2ncccc2C(F)(F)F)CC3)cc1 [Example 168, trifluoroacetic acid salt]
2. CC(C)c1nc2c(c(Nc3ccc4c(c3)N(C)CCC4)n1)CCN(c1ncccc1C(F)(F)F)CC2 [Example 161]

1: 1.48; 2: 2.11

Hello, I would appreciate it if you could give log10 of IC50 for each entry below.
1. COCCN(C)c1nc2c(c(Nc3ccc(C(F)(F)F)nc3)n1)CCN(c1ncccc1C(F)(F)F)CC2 [Example 228, trifluoroacetic acid salt]
2. CC(C)c1nc2c(c(NCc3ccc(C(F)(F)F)nc3)n1)CCN(c1ncccc1C(F)(F)F)CC2 [Example 116]
3. Cc1ccc(Nc2nc(C(C)C)nc3c2CCN(c2ncccc2C(F)(F)F)CC3)cc1 [Example 151, hydrochloride salt]
4. Cc1cc(C(F)(F)F)ccc1Nc1nc(N(C)C2CCCCC2)nc2c1CCN(c1ncccc1C(F)(F)F)CC2 [Example 267]
5. FC(F)(F)c1ccc(Nc2nc(N[C@@H]3CCOC3)nc3c2CCN(c2ncccc2C(F)(F)F)CC3)nc1 [Example 263]
6. CSc1nc2c(c(Nc3ccc4c(c3)N(C)CCC4)n1)CCN(c1ncccc1C(F)(F)F)CC2 [Example 205]
7. Cc1cc(C(F)(F)F)ccc1Nc1nc(OC2CCCCC2)nc2c1CCN(c1ncccc1C(F)(F)F)CC2 [Example 326]

[1.60, 3.85, 2.91, 3.27, 3.16, 3.36, 2.78]

# compound Cc1nc2c(c(Nc3ccc(C(C)(C)C)cc3)n1)CCN(c1ncccc1C(F)(F)F)CC2 [Example 15] ; its log10 of IC50 = 1.66
